Taken from the supplement of paper PMC10567573.

B1: FCHO1 (parent)
chain: DKLALCHLELTRKLQDLIKDVLRY

- Variants of: B1
- Method description: protein stability index of a GFP-peptide fusion (GPS, HEK-293T) (PSI 1-6); higher = more stable;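 further: lentivirally expressed fusions sorted by FACS into six bins by GFP to DsRed ratio, PSI derived from sequencing read proportions per bin multiplied by bin number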
- Measurement conditions: c terminus: a fixed tail appended
Property: protein stability index
// response body must contain only the number

Check out these entries, answers already filled in.
Exercise: Requested field: protein stability index. Item: DKLALMHLELTRKLQDLIKDVLRY
Solution: 3.01

Exercise: Requested field: protein stability index. Item: DKLALCHLELTRKLCDLIKDVLRY
Solution: 2.26

Exercise: Requested field: protein stability index. Item: DKLALCHLELTRKLQDLIDDVLRY
Solution: 1.78

Exercise: Requested field: protein stability index. Item: DKLALSHLELTRKLQDLIKDVLRY
Solution: 3.13

Exercise: Requested field: protein stability index. Item: DKLALCHLELTRKLQDLQKDVLRY
Solution: 1.73

Exercise: Requested field: protein stability index. Item: DKLALCHLELTRKLQDLIKDVLRK
Solution: 2.3

Exercise: Requested field: protein stability index. Item: DKLALNHLELTRKLQDLIKDVLRY
Solution: 3.3

Exercise: Requested field: protein stability index. Item: DKLALCHLELTRKLQDLIKLVLRY
Solution: 2.19

Exercise: Requested field: protein stability index. Item: DKLALRHLELTRKLQDLIKDVLRY
Solution: 2.52

Exercise: Requested field: protein stability index. Item: DKLALCHLELTRKLQDLIKDVERY
Solution: 2.67

Others:
Exercise: Requested field: protein stability index. Item: DKLALCHLELTRKLQDLIKCVLRY
Solution: 1.11

Exercise: Requested field: protein stability index. Item: DKLALCHLELTRKLQDLAKDVLRY
Solution: 2.71

Exercise: Requested field: protein stability index. Item: DKLALCHGELTRKLQDLIKDVLRY
Solution: 2.92

Exercise: Requested field: protein stability index. Item: DKLALCQLELTRKLQDLIKDVLRY
Solution: 2.88

Exercise: Requested field: protein stability index. Item: DKLAPCHLELTRKLQDLIKDVLRY
Solution: 1.82

Exercise: Requested field: protein stability index. Item: DKLALCHLELTRKLQDFIKDVLRY
Solution: 2.42

Exercise: Requested field: protein stability index. Item: DKLALCHLEDTRKLQDLIKDVLRY
Solution: 2.09

Exercise: Requested field: protein stability index. Item: DKLALKHLELTRKLQDLIKDVLRY
Solution: 3

Exercise: Requested field: protein stability index. Item: DKLALCHLELTRKLQDSIKDVLRY
Solution: 2.04

Exercise: Requested field: protein stability index. Item: DLLALCHLELTRKLQDLIKDVLRY
Solution: 2.64
